Origin of values: ChEMBL document CHEMBL1201862

# GI50 per record follows
system: NCI-H522; assay: NCI tumour cell line growth inhibition, 48 h
Active and inactive are the calls of the source. Cut-off read from the data, not from the text of the source: active = GI50 up to about 1.1 µM and inactive = higher.

Worked cases, answers included:
Task: Any idea what GI50 was measured for NC(=S)N1N=C(c2ccc3c(c2)CCC3)CC1c1ccccc1 (stereo unspecified) ?
Result: 6.27 µM (inactive)

Task: Can you handle Oc1cc(C2OCCCO2)cc(O)c1O next?
Result: > 100 µM (inactive)

Task: Can you handle CC(C)(C)[Si](C)(C)OC1CCOC1(O)c1ccccn1 (stereo unspecified) next?
Result: > 100 µM (inactive)

Task: Can you handle CCCCCCCCCC(=O)CC(=O)c1ccc(O)cc1O next?
Result: 18.6 µM (inactive)

Task: Can you handle CC1=C(C#N)C(=O)N(/N=C/c2ccc(Cl)cc2)C(=O)/C1=c1\o/c(=C2/C(=O)N(/N=C/c3ccc(Cl)cc3)C(=O)C(C#N)=C2C)c2nccnc12 next?
Result: > 100 µM (inactive)

More entries:
Task: Any idea what GI50 was measured for Cc1cc(N(CCC#N)CCC#N)ccc1/C=C1N=C(/C=C/c2ccccc2)OC(=O)N\1 ?
Result: > 100 µM (inactive)

Task: Can you handle CC(C)(C)OC(=O)NCC(c1c[nH]c2cc(Br)ccc12)c1c[nH]c2cc(Br)ccc12 next?
Result: 17.3 µM (inactive)

Task: Can you handle O=C(NCCCl)N(O)C(=O)Nc1ccccc1 next?
Result: > 100 µM (inactive)

Task: Can you handle COC(=O)c1ccccc1OCc1cc(=O)oc2ccc(C)cc12 next?
Result: 14.8 µM (inactive)

Task: Can you handle CC1C2CC(CC2(C)O)C1(C)C (stereo unspecified) next?
Result: > 100 µM (inactive)

Task: Can you handle COc1cc2ccc3c4cc(OC)c(OC(C)C)cc4cnc3c2cc1OC next?
Result: > 100 µM (inactive)
